Target: T1, human IGSF11 (VSIG3) expressed on the surface of cells (human, UniProt Q5DX21 23-431)
T1 construct: one molecule for all cell lines; the cell line is named under assay; also called IGSF11-expressing cells; HEK-OE
T1 sequence: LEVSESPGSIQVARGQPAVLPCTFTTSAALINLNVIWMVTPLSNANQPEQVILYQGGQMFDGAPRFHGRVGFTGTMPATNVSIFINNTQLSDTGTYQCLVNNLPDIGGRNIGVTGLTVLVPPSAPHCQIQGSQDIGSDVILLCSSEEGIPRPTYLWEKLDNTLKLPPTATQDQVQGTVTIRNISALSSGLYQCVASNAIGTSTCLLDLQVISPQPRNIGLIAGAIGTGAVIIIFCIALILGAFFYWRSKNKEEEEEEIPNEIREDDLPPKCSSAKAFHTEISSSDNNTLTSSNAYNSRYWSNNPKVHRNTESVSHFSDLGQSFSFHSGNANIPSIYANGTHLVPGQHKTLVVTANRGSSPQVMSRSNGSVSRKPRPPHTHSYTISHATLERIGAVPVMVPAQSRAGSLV
Assay: FACS, IgG1 format, DMS 273 cells
measured_parameter: EC50

Examples with answers:
- binder: "B-002 (chain-swapped, human IgG1 format) (antibody, V domains shown, VH of A-006 with VL of A-012; IgG1 format; also called B2; Chains-B-002) VH: EVQLVESGGGLIQPGGSLRLSCAASGFTVSSNYMSWVRQAPGKGLEWVSVIYSGGSTYYADSVKGRFTISRDNSKNTLYLQMNSLRAEDTAVYYCARGNPYYYGDLQVNFDYWGQGTLVTVSS VL: QAVVTQEPSLTVSPGGTVTLTCASSTGAVTSGYYPNWFQQKPGQAPRALIYSTSNKHSWTPARFSGSLLGGKAALTLSGVQPEDEAEYYCLLYYGGAWVFGGGTKLTVL"
  EC50: "> 50 nM"
- binder: "A-013 (human IgG1 format) (antibody, V domains shown, human IgG1 format) VH: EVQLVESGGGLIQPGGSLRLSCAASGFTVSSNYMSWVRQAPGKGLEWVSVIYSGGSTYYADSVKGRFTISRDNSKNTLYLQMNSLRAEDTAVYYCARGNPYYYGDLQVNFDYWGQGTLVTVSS VL: QAVVTQEPSLTVSPGGTVTLTCASSTGAVTSAYYPNWFQQKPGQAPRALIYSTSNKHSWTPARFSGSLLGGKAALTLSGVQPEDEADYYCLLYYGGAWVFGGGTKLTVL"
  EC50: "> 50 nM"
- binder: "A-012 (human IgG1 format) (antibody, V domains shown, human IgG1 format) VH: EVQLLESGGGLIQPGGSLRLSCAVSGFTVSSNYMSWVRQAPGKGLEWVSVIYSGGSTYYADSVKGRFTISRDNSKNTLYLQMNSLRAEDTAVYYCARGNPYYYGDLQVNFDYWGQGTLVTVSS VL: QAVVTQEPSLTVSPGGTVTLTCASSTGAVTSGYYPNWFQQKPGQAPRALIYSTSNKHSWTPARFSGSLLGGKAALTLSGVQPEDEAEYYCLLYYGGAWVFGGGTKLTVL"
  EC50: "10 to 50 nM"
- binder: "A-024 (human IgG1 format) (antibody, V domains shown) VH: QMQLVQSGAEVKKPGSSVKVSCKASGGTFSSYAISWVRQAPGQGLEWMGWISAYNGNTNYAQKLQGRVTMTTDTSTSTAYMELRSLRSDDTAVYYCASLGSYGYTGAFDIWGQGTMATVSS VL: QSALTQPASVSGSPGQSITISCTGTSSDVGGYNYVSWYQQHPGKAPKLMIYEVSNRPSGVSNRFSGSKSGNTASLTISGLQAEDEADYYCSSYTSSSTLVVFGGGTKLTVL"
  EC50: "< 10 nM"
- binder: "A-006 (human IgG1 format) (antibody, V domains shown, human IgG1 format) VH: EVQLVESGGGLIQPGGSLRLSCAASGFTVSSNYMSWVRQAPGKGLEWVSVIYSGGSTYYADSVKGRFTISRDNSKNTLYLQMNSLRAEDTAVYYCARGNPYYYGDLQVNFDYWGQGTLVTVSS VL: QAVVTQEPSLTVSPGGTVTLTCASSTGAVTSGYYPNWFQQKPGQAPRPLIYSTSNKHSWTPARFSGSLLGGKAALTLSGVQPDDEAEYYCLLYYGGDWVFGGGTKLTVL"
  EC50: "> 50 nM"

// switching to the query binder
Look up and state reported EC50 for A-022 (human IgG1 format) (antibody, V domains shown, human IgG1 format) VH: EVQLLESGPGLVKPSQTLSLTCTVSGGSISSGGYYWSWIRQHPGKGLEWIGYIYYSGSTYYNPSLKSRVTISVDTSKNQFSLKLSSVTAADTAVYYCARASRSTDYYFDYWGQGTLVTVSS VL: QPGLTQPPSMSYGLGQTATLTCTGNRNNIGDQGAAWLQQHQGHPPKLLSYRNNNGPSGISERLSASRSGNTASLTISGLQPEDEADYYCSAWDSSLRAWVFGGGTKLTVL
10 to 50 nM
